system: CEM cells HIV-1 protection, formazan growth assay; assay: NCI AIDS Antiviral Assay
*1 amine or outer side, *2 acyl side, *3 side chain or, on linkers, in order; H or OH if unused. Where a SMILES comes first, the peptide text is derived from it. CO = O=C([*:1])[*:2]
Here, each record is paired with measured EC50 data.

{"COMPOUND": "Cc1cn(CC2OC(CO)C(CO)O2)c(=O)[nH]c1=O (configuration not stated)", "EC50": "> 457 µM"}
{"COMPOUND": "CN(C)C(=O)OC(Cn1cncn1)(Cn1cncn1)c1ccc(Cl)cc1Cl", "EC50": "> 200 µM"}
{"COMPOUND": "COc1cccc(CCCNC(=O)Cc2cc(OC)c(OC)cc2CO)c1", "EC50": "> 200 µM"}
{"COMPOUND": "COc1ccc(NC(=O)Nc2onc(C)c2C)c(Cl)c1", "EC50": "> 191 µM"}
{"COMPOUND": "C#Cc1cccc(NC(=O)/C=C\\C(=O)O)c1", "EC50": "> 832 µM"}
{"COMPOUND": "Cc1ccccc1C(=O)N1CCN(C(=O)c2ccccc2C)CC1", "EC50": "> 145 µM"}
{"COMPOUND": "O=c1c(Cc2ccccc2)c(O)cc2n1CCC2", "EC50": "> 148 µM"}
{"COMPOUND": "COC(=O)[C@H](Cc1ccccc1)NC(=O)N[C@@H](C)C(=O)N[C@H](C(=O)N[C@H](C=O)Cc1ccccc1)C(C)C ({OMe-Phe-CO}-Ala-Val-Phe-aldehyde)", "EC50": "> 200 µM"}
{"COMPOUND": "O=C(N[C@H](CO)[C@H](O)c1ccc([N+](=O)[O-])cc1)C(Cl)Cl", "EC50": "> 200 µM"}
{"COMPOUND": "C=c1[nH]c(=O)c(=C)[nH]c1=O", "EC50": "> 72.4 µM"}
{"COMPOUND": "O=C(N/N=C\\c1ccc[nH]1)c1ccncc1", "EC50": "> 200 µM"}
{"COMPOUND": "N#C/C(=C\\c1cc(O)c(O)c(I)c1)C(=O)NCCCc1ccccc1", "EC50": "> 200 µM"}
{"COMPOUND": "CN(C)/C=N/c1nc2ncn(CCOC(=O)c3ccccc3)c2c(=O)[nH]1", "EC50": "> 708 µM"}
{"COMPOUND": "COc1ccc(C(=O)CCN(C)C)cc1", "EC50": "> 200 µM"}
{"COMPOUND": "C1CCN2CC34CC(CC5CCCN(C6CCCC3N6)C54)C2C1 (configuration not stated)", "EC50": "> 309 µM"}
{"COMPOUND": "Cc1ccc(-n2cc(-c3ccc(Cl)cc3)c3c(NNC(=S)NCc4ccccc4)ncnc32)cc1", "EC50": "> 200 µM"}
{"COMPOUND": "O=c1c(O)c(-c2ccc(O)cc2)oc2cc(O)cc(O)c12", "EC50": "> 97.7 µM"}
{"COMPOUND": "CC(=O)N(NC(=O)P(=O)(OC(C)C)OC(C)C)c1ccc([N+](=O)[O-])cc1", "EC50": "> 129 µM"}
{"COMPOUND": "O=C1C=C2CCN(C(=O)c3ccccc3)CC2O1 (configuration not stated)", "EC50": "> 200 µM"}
{"COMPOUND": "O=C(O)CCC(NC(=O)c1ccc(Nc2nc3ccc(C(F)(F)F)cc3nc2C(=O)O)cc1)C(=O)O (configuration not stated)", "EC50": "> 200 µM"}
{"COMPOUND": "CC1CC(C)CC(C)C(O)/C(C#N)=C/C=C/CC(C2CCCC2C(=O)O)OC(=O)CC(O)C(C)C1 (configuration not stated)", "EC50": "> 2.57 µM"}
{"COMPOUND": "COc1ccc(C[C@H]2COC(=O)[C@@H]2Cc2ccc(O)c(O)c2)cc1OC", "EC50": "> 200 µM"}

---

test system: CEM cells HIV-1 protection, formazan growth assay; assay: NCI AIDS Antiviral Assay; details: measured here: growth of uninfected CEM cells

{"COMPOUND": "COc1cc(Nc2nc3cc(C(F)(F)F)ccc3nc2C)cc(OC)c1OC", "UNITS_TEXT": "µM", "OPERATOR": "=", "IC50": 31.6}
{"COMPOUND": "O=C1OC2CCCC1O2 (stereo not given)", "UNITS_TEXT": "µM", "OPERATOR": ">", "IC50": 200}
{"COMPOUND": "O=C(CC(C(=O)c1cccs1)c1ccsc1)c1ccc(Cl)s1 (stereo not given)", "UNITS_TEXT": "µM", "OPERATOR": "=", "IC50": 97.7}
{"COMPOUND": "CCCCCC=C(c1cc(Br)c(OC)c(C(=O)O)c1)c1cc(Br)c(OC)c(C(=O)O)c1", "UNITS_TEXT": "µM", "OPERATOR": "=", "IC50": 91.2}
{"COMPOUND": "N/N=C(\\C(=O)Nc1c(Cl)cc([N+](=O)[O-])cc1Cl)C(c1cnc2ccc([N+](=O)[O-])cc2n1)[N+](=O)[O-] (stereo not given)", "UNITS_TEXT": "µM", "OPERATOR": ">", "IC50": 70.8}

---

test system: CEM cells HIV-1 protection, formazan growth assay; experiment: NCI AIDS Antiviral Assay; details: measured here: growth of uninfected CEM cells
pIC50: −log10 of the molar value.
Overview of recorded pIC50 for various molecules
ASSAY_READOUT: pIC50

{"MOLECULE": "CC(C)C(=O)OCC1CCCN2CCCCC12 (stereo unspecified)", "EXPERIMENTAL_SYSTEM": "CEM cells HIV-1 protection, formazan growth assay", "OPERATOR": "<", "TEST_RESULT": 4.00}
{"MOLECULE": "COc1cccc2c1C(c1ccc3ccccc3c1)OC2=O (stereo unspecified)", "EXPERIMENTAL_SYSTEM": "CEM cells HIV-1 protection, formazan growth assay", "OPERATOR": "=", "TEST_RESULT": 4.60}
{"MOLECULE": "OC(C#CCN1CCCC1)(c1ccccc1)c1ccccc1.[C-]#[O+].[C-]#[O+].[C-]#[O+].[C-]#[O+].[C-]#[O+].[C-]#[O+].[Co].[Co]", "EXPERIMENTAL_SYSTEM": "CEM cells HIV-1 protection, formazan growth assay", "OPERATOR": "=", "TEST_RESULT": 5.13}
{"MOLECULE": "O=c1[nH]ncc2c1Sc1cn[nH]c(=O)c1S2", "EXPERIMENTAL_SYSTEM": "CEM cells HIV-1 protection, formazan growth assay", "OPERATOR": "<", "TEST_RESULT": 4.97}
{"MOLECULE": "Cn1ncc(=O)[nH]c1=S", "EXPERIMENTAL_SYSTEM": "CEM cells HIV-1 protection, formazan growth assay", "OPERATOR": "<", "TEST_RESULT": 3.70}
{"MOLECULE": "COc1ccc2c(c1)CN([C@@H](C)[C@H]1CC[C@H]3[C@@H]4CC[C@H]5C[C@@H](O)CC[C@]5(C)[C@H]4CC[C@]13C)CO2", "EXPERIMENTAL_SYSTEM": "CEM cells HIV-1 protection, formazan growth assay", "OPERATOR": "=", "TEST_RESULT": 5.50}

---

tested on: CEM cells HIV-1 protection, formazan growth assay; assay: NCI AIDS Antiviral Assay;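 active means compounds giving half or more protection of infected cells from virus-caused growth loss, again on retest; inactive means the rest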
Labels: Yes for active, No for inactive

{"MOLECULE": "CC(C)[C@H]1CO[C@@H]2O[C@H](C)CC(=O)N21", "LABEL": "No"}
{"MOLECULE": "Cc1cc(N=Nc2ccc(Sc3ccc(N=Nc4ccc(O)c(C(=O)O)c4)cc3)cc2)c(N)c(N=Nc2ccc(N=Nc3ccc(S(=O)(=O)O)cc3)cc2)c1N", "LABEL": "Yes"}
{"MOLECULE": "CC(=O)CC(=O)ON(C)C(C)=O", "LABEL": "No"}
{"MOLECULE": "O=C(/N=C1/OC(CN2CCOCC2)CN1C(=O)Nc1ccccc1)Nc1ccccc1 (stereo not given)", "LABEL": "No"}
{"MOLECULE": "CC(C)(C)C1=CC(=Nc2ccc([N+](=O)[O-])cc2[N+](=O)[O-])C=C(C(C)(C)C)C1=O", "LABEL": "No"}
{"MOLECULE": "COc1ccc(N2C(=O)C3c4[nH]c5ccccc5c4C4CC(C)CC(C)C4C3C2=O)cc1 (stereo not given)", "LABEL": "No"}
{"MOLECULE": "C1=C2/CC[C@H](Sc3ccccc3)[C@H]2C2(CCCCC/1)OCCO2", "LABEL": "No"}
{"MOLECULE": "CCN(CC)CCN1C(=O)c2cccc3cccc(c23)C1=O", "LABEL": "No"}
{"MOLECULE": "COC1=NS(=O)(=O)C2(O1)c1ccccc1-c1ccccc12", "LABEL": "No"}
{"MOLECULE": "COC(=O)c1cc(C#N)[nH]c1-c1ccc(Br)s1", "LABEL": "No"}
